assay_method_text: total protein half-life in vivo (active degradation + dilution); higher = more stable protein
protocol_conditions: wild type E. coli NCM3722; growth: P-lim chemostat; doubling time 12 h
reported_property: total protein half-life in vivo (h)

[[record]]
macromolecule_sequence = "MNHSLKPWNTFGIDHNAQHIVCAEDEQQLLNAWQYATAEGQPVLILGEGSNVLFLEDYRGTVIINRIKGIEIHDEPDAWYLHVGAGENWHRLVKYTLQEGMPGLENLALIPGCVGSSPIQNIGAYGVELQRVCAYVDSVELATGKQVRLTAKECRFGYRDSIFKHEYQDRFAIVAVGLRLPKEWQPVLTYGDLTRLDPTTVTPQQVFNAVCHMRTTKLPDPKVNGNAGSFFKNPVVSAETAKALLSQFPTAPNYPQADGSVKLAAGWLIDQCQLKGMQIGGAAVHRQQALVLINEDNAKSEDVVQLAHHVRQKVGEKFNVWLEPEVRFIGASGEVSAVETIS"
reported_property = "total protein half-life in vivo"
reported_result = 8.99

[[record]]
macromolecule_sequence = "MRVLLAPMEGVLDSLVRELLTEVNDYDLCITEFVRVVDQLLPVKVFHRICPELQNASRTPSGTLVRVQLLGQFPQWLAENAARAVELGSWGVDLNCGCPSKTVNGSGGGATLLKDPELIYQGAKAMREAVPAHLPVSVKVRLGWDSGEKKFEIADAVQQAGATELVVHGRTKEQGYRAEHIDWQAIGDIRQRLNIPVIANGEIWDWQSAQQCMAISGCDAVMIGRGALNIPNLSRVVKYNEPRMPWPEVVALLQKYTRLEKQGDTGLYHVARIKQWLSYLRKEYDEATELFQHVRVLNNSPDIARAIQAIDIEKL"
reported_property = "total protein half-life in vivo"
reported_result = 11.7

[[record]]
macromolecule_sequence = "MVLMIVSGRSGSGKSVALRALEDMGFYCVDNLPVVLLPDLARTLADREISAAVSIDVRNMPESPEIFEQAMSNLPDAFSPQLLFLDADRNTLIRRYSDTRRLHPLSSKNLSLESAIDKESDLLEPLRSRADLIVDTSEMSVHELAEMLRTRLLGKRERELTMVFESFGFKHGIPIDADYVFDVRFLPNPHWDPKLRPMTGLDKPVAAFLDRHTEVHNFIYQTRSYLELWLPMLETNNRSYLTVAIGCTGGKHRSVYIAEQLADYFRSRGKNVQSRHRTLEKRKP [P0A894]"
reported_property = "total protein half-life in vivo"
reported_result = 12.1


---

assay_method_text: total protein half-life in vivo (active degradation + dilution); higher = more stable protein
protocol_conditions: E. coli NCM3722 delta-hslV; growth: N-lim chemostat; doubling time 6 h
Please use YES whenever total protein half-life in vivo is not below 3 h, and NO whenever it is.

[[record]]
macromolecule_sequence = "MKRASLLTLTLIGAFSAIQAAWAVDYPLPPTGSRLVGQNQTYTVQEGDKNLQAIARRFDTAAMLILEANNTIAPVPKPGTTITIPSQLLLPDAPRQGIIVNLAELRLYYYPPGENIVQVYPIGIGLQGLETPVMETRVGQKIPNPTWTPTAGIRQRSLERGIKLPPVVPAGPNNPLGRYALRLAHGNGEYLIHGTSAPDSVGLRVSSGCIRMNAPDIKALFSSVRTGTPVKVINEPVKYSVEPNGMRYVEVHRPLSAEEQQNVQTMPYTLPAGFTQFKDNKAVDQKLVDKALYRRAGYPVSVSSGATPAASNAPSVESAQNGEPEQGNMLRVTQ"
assigned_label = "YES"

[[record]]
macromolecule_sequence = "MSQVSTEFIPTRIAILTVSNRRGEEDDTSGHYLRDSAQEAGHHVVDKAIVKENRYAIRAQVSAWIASDDVQVVLITGGTGLTEGDQAPEALLPLFDREVEGFGEVFRMLSFEEIGTSTLQSRAVAGVANKTLIFAMPGSTKACRTAWENIIAPQLDARTRPCNFHPHLKK [P0AEZ9]"
assigned_label = "YES"

[[record]]
macromolecule_sequence = "MKHDHFVVQSPDKPAQQLLLLFHGVGDNPVAMGEIGNWFAPLFPDALVVSVGGAEPSGNPAGRQWFSVQGITEDNRQARVDAIMPTFIETVRYWQKQSGVGANATALIGFSQGAIMVLESIKAEPGLASRVIAFNGRYASLPETASTATTIHLIHGGEDPVIDLAHAVAAQEALISAGGDVTLDIVEDLGHAIDNRSMQFALDHLRYTIPKHYFDEALSGGKPGDDDVIEMM"
assigned_label = "NO"

[[record]]
macromolecule_sequence = "MTTMLEVAKRAGVSKATVSRVLSGNGYVSQETKDRVFQAVEESGYRPNLLARNLSAKSTQTLGLVVTNTLYHGIYFSELLFHAARMAEEKGRQLLLADGKHSAEEERQAIQYLLDLRCDAIMIYPRFLSVDEIDDIIDAHSQPIMVLNRRLRKNSSHSVWCDHKQTSFNAVAELINAGHQEIAFLTGSMDSPTSIERLAGYKDALAQHGIALNEKLIANGKWTPASGAEGVEMLLERGAKFSALVASNDDMAIGAMKALHERGVAVPEQVSVIGFDDIAIAPYTVPALSSVKIPVTEMIQEIIGRLIFMLDGGDFSPPKTFSGKLIRRDSLIAPSR"
assigned_label = "YES"

[[record]]
macromolecule_sequence = "MHQVVCATTNPAKIQAILQAFHEIFGEGSCHIASVAVESGVPEQPFGSEETRAGARNRVANARRLLPEADFWVAIEAGIDGDSTFSWVVIENASQRGEARSATLPLPAVILEKVREGEALGPVMSRYTGIDEIGRKEGAIGVFTAGKLTRASVYHQAVILALSPFHNAVY"
assigned_label = "YES"

[[record]]
macromolecule_sequence = "MRYPVDVYTGKIQAYPEGKPSAIAKIQVDGELMLTELGLEGDEQAEKKVHGGPDRALCHYPREHYLYWAREFPEQAELFVAPAFGENLSTDGLTESNVYMGDIFRWGEALIQVSQPRSPCYKLNYHFDISDIAQLMQNTGKVGWLYSVIAPGKVSADAPLELVSRVSDVTVQEAAAIAWHMPFDDDQYHRLLSAAGLSKSWTRTMQKRRLSGKIEDFSRRLWGK"
assigned_label = "YES"

[[record]]
macromolecule_sequence = "MKKLTVAALAVTTLLSGSAFAHEAGEFFMRAGSATVRPTEGAGGTLGSLGGFSVTNNTQLGLTFTYMATDNIGVELLAATPFRHKIGTRATGDIATVHHLPPTLMAQWYFGDASSKFRPYVGAGINYTTFFDNGFNDHGKEAGLSDLSLKDSWGAAGQVGVDYLINRDWLVNMSVWYMDIDTTANYKLGGAQQHDSVRLDPWVFMFSAGYRF [P0A915]"
assigned_label = "YES"

[[record]]
macromolecule_sequence = "MDSFPAIEIDKVKAWDFRLANINTSECLNVAYGVDANYLDGVGVSITSIVLNNRHINLDFYIIADVYNDGFFQKIAKLAEQNQLRITLYRINTDKLQCLPCTQVWSRAMYFRLFAFQLLGLTLDRLLYLDADVVCKGDISQLLHLGLNGAVAAVVKDVEPMQEKAVSRLSDPELLGQYFNSGVVYLDLKKWADAKLTEKALSILMSKDNVYKYPDQDVMNVLLKGMTLFLPREYNTIYTIKSELKDKTHQNYKKLITESTLLIHYTGATKPWHKWAIYPSVKYYKIALENSPWKDDSPRDAKSIIEFKKRYKHLLVQHHYISGIIAGVCYLCRKYYRK"
assigned_label = "YES"

[[record]]
macromolecule_sequence = "MTKQPPIAKADLQKTQGNRAPAAVKNSDVISFINQPSMKEQLAAALPRHMTAERMIRIATTEIRKVPALGNCDTMSFVSAIVQCSQLGLEPGSALGHAYLLPFGNKNEKSGKKNVQLIIGYRGMIDLARRSGQIASLSARVVREGDEFSFEFGLDEKLIHRPGENEDAPVTHVYAVARLKDGGTQFEVMTRKQIELVRSLSKAGNNGPWVTHWEEMAKKTAIRRLFKYLPVSIEIQRAVSMDEKEPLTIDPADSSVLTGEYSVIDNSEE"
assigned_label = "NO"

[[record]]
macromolecule_sequence = "MSDDVALPLEFTDAAANKVKSLIADEDNPNLKLRVYITGGGCSGFQYGFTFDDQVNEGDMTIEKQGVGLVVDPMSLQYLVGGSVDYTEGLEGSRFIVTNPNAKSTCGCGSSFSI [P0ACC3]"
assigned_label = "NO"

[[record]]
macromolecule_sequence = "MRKQWLGICIAAGMLAACTSDDGQQQTVSVPQPAVCNGPIVEISGADPRFEPLNATANQDYQRDGKSYKIVQDPSRFSQAGLAAIYDAEPGSNLTASGEAFDPTQLTAAHPTLPIPSYARITNLANGRMIVVRINDRGPYGNDRVISLSRAAADRLNTSNNTKVRIDPIIVAQDGSLSGPGMACTTVAKQTYALPAPPDLSGGAGTSSVSGPQGDILPVSNSTLKSEDPTGAPVTSSGFLGAPTTLAPGVLEGSEPTPAPQPVVTAPSTTPATSPAMVTPQAVSQSASGNFMVQVGAVSDQARAQQYQQQLGQKFGVPGRVTQNGAVWRIQLGPFASKAEASTLQQRLQTEAQLQSFITTAQ"
assigned_label = "YES"

